# TARGET_SYSTEM: HNF4alpha2 (COS-7 nuclear extract) (Homo sapiens, UniProt P41235 1-474)
# Sequence: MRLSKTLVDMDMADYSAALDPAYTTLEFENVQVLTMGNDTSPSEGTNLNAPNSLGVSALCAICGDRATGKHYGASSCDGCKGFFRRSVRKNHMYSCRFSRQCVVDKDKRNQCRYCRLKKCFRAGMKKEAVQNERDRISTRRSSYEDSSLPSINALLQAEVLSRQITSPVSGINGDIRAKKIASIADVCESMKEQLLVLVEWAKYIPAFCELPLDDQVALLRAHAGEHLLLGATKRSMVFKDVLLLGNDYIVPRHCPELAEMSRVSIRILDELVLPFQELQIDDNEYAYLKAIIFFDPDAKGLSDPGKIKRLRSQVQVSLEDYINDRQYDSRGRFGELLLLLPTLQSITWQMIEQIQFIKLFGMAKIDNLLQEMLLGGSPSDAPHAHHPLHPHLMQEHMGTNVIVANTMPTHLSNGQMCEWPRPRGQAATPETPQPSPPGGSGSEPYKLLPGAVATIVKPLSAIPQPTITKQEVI
# ASSAY_PROCEDURE: protein-binding microarray; COS-7 nuclear extract on double-stranded Agilent 4x180k PBM; binding buffer, salt, pH and temperature not given in the material; high values mean tight binding
# EXPERIMENTAL_SETUP: chain copies: 2; label: 3' end of strand 1 on the slide; dsDNA, one strand shown
In all, about 18,000 sequences were measured (“log2 normalized intensity”: median about 0.39, highest 2% from about 6.6 on). The full list was thinned out, with the highest values kept by preference.
OBSERVABLE: binding signal (log2 normalized intensity)
Give the value, in units of log2 normalized intensity, as a plain number.

>>> endpoint_result("GAGTTCTTCAAGTCAGTCAAAATGAATAGTGCCTAGGGAGATTAGAGTATCGGTCGA")
1.32
>>> endpoint_result("TGGCTGGCGGCTAGTGTACAGGTGACCTTTGCCTAGGGAGATTAGAGTATCGGTCGA")
7.2
>>> endpoint_result("GGAATGAGCAGGAACCTTGTGGTGGTGAAAGCCTAGGGAGATTAGAGTATCGGTCGA")
1.01

Which binding signal is listed for AGATAGTGACGGAGGTGACCTTTGGTTGTCGCCTAGGGAGATTAGAGTATCGGTCGA ? 5.52

Which binding signal is listed for TAAACTTTTGATTGCTTAGGCTCTTGTTATGCCTAGGGAGATTAGAGTATCGGTCGA ? -0.703

Which binding signal is listed for TTGGAGAATGCCTTTTGTGTAGGAGTACACGCCTAGGGAGATTAGAGTATCGGTCGA ? 1.7
